This section presents compounds with their documented Efficacy, ERβ (AVG % ER remaining ± SD) values.
- system_under_test: ERβ (Homo sapiens)
- test: Western blot, dose-response modulation of ERβ protein levels in T47D cells
- Type: cell-based
- Design: endogenous in cells
- reported_conditions: 24 h, relative to vehicle (DMSO) = 100%
Marks after values point to notes of the source that are not given here.
value_type: Efficacy, ERβ (AVG % ER remaining ± SD)

- Cc1c(-c2ccc(O)cc2)nn(-c2ccc(O)cc2)c1-c1ccc(OCCN2CCCCC2)cc1: 108.0 ± 2.1^b*** %
- C[C@]12CC[C@@H]3c4ccc(O)cc4CC[C@H]3[C@@H]1CC[C@@H]2O [E2, 17β-estradiol]: 58.7 ± 9.0^a %
- C[C@]12CC[C@@H]3c4ccc(O)cc4C[C@@H](CCCCCCCCC[S+]([O-])CCCC(F)(F)C(F)(F)F)[C@H]3[C@@H]1CC[C@@H]2O (stereo partly shown): 134.1 ± 4.8^b*** %
- CC/C(=C(\c1ccc(O)cc1)c1ccc(OCCN(C)C)cc1)c1ccccc1 [4-OHT, (2)-4-hydroxytamoxifen]: 151.8 ± 10.8^b*** %

---

- system_under_test: ERβ (Homo sapiens, UniProt Q92731)
- Sequence (Q92731 whole entry): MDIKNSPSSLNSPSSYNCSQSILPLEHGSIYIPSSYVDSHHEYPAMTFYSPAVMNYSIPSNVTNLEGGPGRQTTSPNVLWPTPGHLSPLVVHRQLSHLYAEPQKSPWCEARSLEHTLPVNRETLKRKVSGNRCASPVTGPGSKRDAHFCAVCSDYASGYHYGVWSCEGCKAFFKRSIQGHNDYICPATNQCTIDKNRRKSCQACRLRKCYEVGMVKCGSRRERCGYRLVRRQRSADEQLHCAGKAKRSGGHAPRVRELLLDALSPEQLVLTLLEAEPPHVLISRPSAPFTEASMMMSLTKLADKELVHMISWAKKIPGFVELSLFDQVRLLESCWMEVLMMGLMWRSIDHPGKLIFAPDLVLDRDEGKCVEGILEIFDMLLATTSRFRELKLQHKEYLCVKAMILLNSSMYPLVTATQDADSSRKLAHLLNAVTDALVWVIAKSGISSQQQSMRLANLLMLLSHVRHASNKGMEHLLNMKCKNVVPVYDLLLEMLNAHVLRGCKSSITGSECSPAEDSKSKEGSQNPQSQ
- test: Western blot, dose-response modulation of ERβ protein levels in MCF7 cells
- Type: cell-based
- Set-up: although both cell lines express ERα and ERβ, MCF7 has a high ERα/ERβ ratio; endogenous in cells; host or cells: MCF7
- reported_conditions: 24 h, relative to vehicle (DMSO) = 100%
Marks after values point to notes of the source that are not given here.
value_type: Efficacy, ERβ (AVG % ER remaining ± SD)

- Cc1c(-c2ccc(O)cc2)nn(-c2ccc(O)cc2)c1-c1ccc(OCCN2CCCCC2)cc1 [MPP, methylpiperidinopyrazole]: 122.0 ± 2.3^b*** %
- C[C@]12CC[C@@H]3c4ccc(O)cc4C[C@@H](CCCCCCCCC[S+]([O-])CCCC(F)(F)C(F)(F)F)[C@H]3[C@@H]1CC[C@@H]2O (stereo partly shown) [Ful, fulvestrant]: 127.1 ± 9.6^b*** %
- C[C@]12CC[C@@H]3c4ccc(O)cc4CC[C@H]3[C@@H]1CC[C@@H]2O [E2, 17β-estradiol]: 53.3 ± 5.6^a %
- CC/C(=C(\c1ccc(O)cc1)c1ccc(OCCN(C)C)cc1)c1ccccc1 [4-OHT, (2)-4-hydroxytamoxifen]: 142.9 ± 8.2^b*** %
